molecular target: human LAT1 (Homo sapiens, UniProt Q01650); construct: expressed in transfected cells; assay: Inhibition of L-[14C]leucine uptake in HEK293-hLAT1 cells; type: cell-based; details: Ki for LAT1 calculated at 300 μM of compound, L-[14C]leucine uptake, HEK293-hLAT1, inhibitor at 300 μM
Sequence (Q01650 whole entry): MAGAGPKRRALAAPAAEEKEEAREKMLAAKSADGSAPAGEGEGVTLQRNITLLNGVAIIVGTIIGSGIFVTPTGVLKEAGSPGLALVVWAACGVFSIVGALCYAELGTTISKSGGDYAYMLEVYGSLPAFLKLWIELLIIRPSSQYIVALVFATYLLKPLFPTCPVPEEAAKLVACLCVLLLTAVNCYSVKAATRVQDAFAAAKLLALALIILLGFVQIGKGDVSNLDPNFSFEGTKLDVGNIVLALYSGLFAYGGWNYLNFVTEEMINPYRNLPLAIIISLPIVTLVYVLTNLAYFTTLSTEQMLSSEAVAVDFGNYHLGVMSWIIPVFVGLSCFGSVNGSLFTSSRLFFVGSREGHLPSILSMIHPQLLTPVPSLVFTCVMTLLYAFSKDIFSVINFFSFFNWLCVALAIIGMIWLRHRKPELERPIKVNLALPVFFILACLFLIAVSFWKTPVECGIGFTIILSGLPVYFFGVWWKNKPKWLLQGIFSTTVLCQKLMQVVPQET
Sequence (P08195 102-630 partner): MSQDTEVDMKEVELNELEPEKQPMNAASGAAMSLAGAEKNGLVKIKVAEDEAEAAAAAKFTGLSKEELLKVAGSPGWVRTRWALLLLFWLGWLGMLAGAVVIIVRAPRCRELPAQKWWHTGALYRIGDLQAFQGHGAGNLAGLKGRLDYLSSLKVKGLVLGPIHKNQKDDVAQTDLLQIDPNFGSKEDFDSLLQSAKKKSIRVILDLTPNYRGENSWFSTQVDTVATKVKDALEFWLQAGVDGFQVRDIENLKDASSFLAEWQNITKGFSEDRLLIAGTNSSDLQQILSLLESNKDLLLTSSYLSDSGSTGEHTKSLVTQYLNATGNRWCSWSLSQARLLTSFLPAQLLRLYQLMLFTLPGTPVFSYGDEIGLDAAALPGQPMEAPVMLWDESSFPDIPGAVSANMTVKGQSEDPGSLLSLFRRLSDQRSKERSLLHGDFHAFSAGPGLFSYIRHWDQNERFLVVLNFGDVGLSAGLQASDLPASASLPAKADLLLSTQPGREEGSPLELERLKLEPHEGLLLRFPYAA
Quantity measured: Ki (µM)
Could you give me the number in µM? Just the number is fine.

Q) Please report Ki for the following compound: N[C@]1(C(=O)O)CCc2ccccc2C1
A) 66.7

====

I'd appreciate it if you could supply Vmax of efflux (% radioactivity/min) values for the items below.
Target: human LAT1 (Homo sapiens)
Construct: expressed in transfected cells
Experiment: Efflux of pre-loaded L-[14C]leucine from HEK293-hLAT1 cells induced by extracellular compounds
Format: cell-based
Settings: LAT1, L-[14C]leucine efflux, 1 min; mean ± S.E.M., n = 3
Procedure: We evaluated the efflux of pre-loaded L-[^14C]leucine from LAT1 and pre-loaded L-[^14C]alanine from LAT2 induced by extracellularly applied compounds. Efflux experiments were performed as described previously. […] Following incubation, the medium was collected and radioactivity was measured in both the medium and the cells. […] The kinetic parameters for the efflux of L-[^14C]leucine or L-[^14C]alanine induced by various concentrations of extracellularly-applied test compounds were analyzed. […]
Write it as a number; the unit % radioactivity/min goes unstated.

Q) Report Vmax of efflux (% radioactivity/min), nothing else, for this compound: N[C@@H](Cc1ccccc1)C(=O)O
A) 13.32

Q) Give Vmax of efflux (% radioactivity/min) for N[C@@H](Cc1ccccc1I)C(=O)O
A) 7.62

Q) Return the recorded Vmax of efflux (% radioactivity/min) value; entry: C[C@](N)(Cc1ccccc1)C(=O)O [α-methyl-Phe, α-Methyl-L-phenylalanine, reference compound]
A) 15.45

Q) Using the record for N[C@]1(C(=O)O)CCc2ccccc2C1 , state its measured Vmax of efflux (% radioactivity/min).
A) 15.43
